B1: 1-phosphatidylinositol 4,5-bisphosphate phosphodiesterase gamma-2, residues 772 to 827; numbered along this chain, P16885 (parent)
chain: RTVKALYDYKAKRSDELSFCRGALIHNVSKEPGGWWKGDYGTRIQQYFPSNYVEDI

variants of: B1; experiment: abundance fitness (aPCA) (normalised: wild type 0, dead -1); higher = more abundant; growth selection in yeast, the domain comes from the species named; settings: Homo sapiens
readout: abundance fitness

Req: Please look up its abundance fitness: RTVKALYDYKAKRSDELSFCRGALIHNVSIEPGGWWKGDYGTRIQQYFPSNYVEDI [K30I]
Resp: 0.245

Req: Please look up its abundance fitness: RTVKALYDYKAKRSDELSFCRGALIHNVSKEPGGDWKGDYGTRIQQYFPSNYVEDI [W35D]
Resp: -0.381

Req: Please look up its abundance fitness: ITVKALYDYKAKRSDELSFCRGALIHNVSKEPGGWWKGDYGTRIQQYFPSNYVEDI [R1I]
Resp: -0.141

Req: Please look up its abundance fitness: RTVKALYDYKAKRSDELSACRGALIHNVSKEPGGWWKGDYGTRIQQYFPSNYVEDI [F19A]
Resp: -0.758

Req: Please look up its abundance fitness: RTVKALYDYKAKCSDELSFCRGALIHNVSKEPGGWWKGDYGTRIQQYFPSNYVEDI [R13C]
Resp: -0.212

Req: Please look up its abundance fitness: RTVKALCDYKAKRSDELSFCRGALIHNVSKEPGGWWKGDYGTRIQQYFPSNYVEDI [Y7C]
Resp: -0.118

Req: Please look up its abundance fitness: RTVKALYDYKAKRSDELSGCRGALIHNVSKEPGGWWKGDYGTRIQQYFPSNYVEDI [F19G]
Resp: -0.604

Req: Please look up its abundance fitness: RTVKALYDYKAKRSDELSFCRGALIHNVSKMPGGWWKGDYGTRIQQYFPSNYVEDI [E31M]
Resp: -0.009

Req: Please look up its abundance fitness: RTVKALYDYKAKRSDELSFCRGALIHNVSNEPGGWWKGDYGTRIQQYFPSNYVEDI [K30N]
Resp: -0.167

Req: Please look up its abundance fitness: RTVKALYDYKAKRSDELSFCRGALIHFVSKEPGGWWKGDYGTRIQQYFPSNYVEDI [N27F]
Resp: -1.05

Req: Please look up its abundance fitness: RTVKALYDYKAKRSDELSFCRGALIHNVSKEPGGWWKGDYGTRIQQYFPSNYQEDI [V53Q]
Resp: -0.731

Req: Please look up its abundance fitness: RTVKALYDYKAKRSDELSFCRGALIHNVSKEPGGWWKGDCGTRIQQYFPSNYVEDI [Y40C]
Resp: -0.061

Req: Please look up its abundance fitness: RTVKALYWYKAKRSDELSFCRGALIHNVSKEPGGWWKGDYGTRIQQYFPSNYVEDI [D8W]
Resp: -0.634

Req: Please look up its abundance fitness: RTVKALYDYKAKRSDELSFCRGALIHNVSKEPGGWWKGDYGTRIQQYWPSNYVEDI [F48W]
Resp: -0.848

Req: Please look up its abundance fitness: RTVKALYDYKAKRIDELSFCRGALIHNVSKEPGGWWKGDYGTRIQQYFPSNYVEDI [S14I]
Resp: 0.031

Req: Please look up its abundance fitness: RTVKALYDYKAKRSDELSFCRGALIHNVSKEPGGWWKGDYGTRIQQYVPSNYVEDI [F48V]
Resp: -0.939

Req: Please look up its abundance fitness: RTVKALYDYKAKRSDELSFCRGALIHNVSKEPGAWWKGDYGTRIQQYFPSNYVEDI [G34A]
Resp: -0.074

Req: Please look up its abundance fitness: RTVKALYDYKAKRSDELSFCRGALIHNVSKEPGGWWKGDYGTRIQQYFPSVYVEDI [N51V]
Resp: -0.134

Req: Please look up its abundance fitness: RTVKALYDYKAKRSDELSFCRGALIHNWSKEPGGWWKGDYGTRIQQYFPSNYVEDI [V28W]
Resp: -0.793

Req: Please look up its abundance fitness: RTVKALYDYKAKRSDELSFCRGALIHNVSKEPGNWWKGDYGTRIQQYFPSNYVEDI [G34N]
Resp: 0.138

Req: Please look up its abundance fitness: RTVKALYDYKAKRSDELSFCRGALIHNVSKEPGGWWKGDYGTRIQQYFPSAYVEDI [N51A]
Resp: -0.025

Req: Please look up its abundance fitness: RTVKALYDYKAKRSDELFFCRGALIHNVSKEPGGWWKGDYGTRIQQYFPSNYVEDI [S18F]
Resp: -0.927
